Recorded pIC50 values for a group of compounds are listed next.
Test system: HCT-116
Assay: Antiproliferative activity against human HCT116 cells after 48 hrs by MTT assay
Assay type: functional, cell-based
Conditions: HCT-116, 48 h
pIC50: −log10 of the molar value.
value.type: pIC50

>>> result_value("COC(C)(C)CCC[C@@](C)(O)[C@H]1CC[C@]2(C)[C@@H]1[C@H](OC(C)=O)C[C@@H]1[C@@]3(C)CC[C@H](OC(C)=O)C(C)(C)[C@@H]3CC[C@]12C")
4.51
>>> result_value("COC(C)(C)CCC[C@@](C)(O)[C@H]1CC[C@]2(C)[C@@H]1[C@H](O)C[C@@H]1[C@@]3(C)CC[C@H](OC(=O)CCl)C(C)(C)[C@@H]3CC[C@]12C")
4.27
>>> result_value("COC(C)(C)CC/C=C(/C)[C@H]1CC[C@]2(C)[C@@H]1[C@H](O)C[C@@H]1[C@@]3(C)CC[C@H](O)C(C)(C)[C@@H]3CC[C@]12C")
4.64
